# TARGET SYSTEM: T1, mouse Jagged1-His (extracellular domain of mouse Jagged1, aa 1-1060, with histidine tag) (mouse, UniProt Q9QXX0 34-1060)
# T1 construct: made in insect cells; also called mJag1; Mouse Jagged 1 ECD His-tagged
# MEASUREMENT NOTES: SPR, Biacore 2000; Jagged protein amine-coupled to CM5 chip, antibody injected 100-1.0 nM, global fit
ENDPOINT: pKd
Give bare numbers, as −log10 of the molar value.

Problem: Looking for the measured pKd of 64R7 IgG2 antibody (antibody, V domains shown, Human IgG2 / kappa, expressed in CHO cells; also called antibody 64R7; ATCC PTA-10470) VH: QVQLVESGGGVVQPGRSLRLSCAASGFTFSSYAMHWVRQAPGKGLEWVAVISYDGSNKYYADSVKGRFTISRDNSKNTLYLQMNSLRAEDTAVYYCARDKYDIPDAFDIWGQGTLVTVSS VL: DIRMTQSPSSLSASVGDRVTITCRASQGISNDLAWYQQKPGKVPRLLIYATSTLQSGVPSRFSGSGSATDFTLTISSLQPEDVATYYCQQSYNAPITFGQGTRLEIKR , can you help?
Result: 8.32
